- Test system: human monocyte-derived macrophages (polarized)
- assay procedure: cell shape (eccentricity) Z-score vs DMSO control; higher = more elongated, M2-like morphology
- condition notes: 5 µM; 24 h; macrophage state: M2-polarized (IL-4 + IL-13), cytokines present during treatment
Recorded cell shape (Z-score) values for a group of compounds are listed next.
# output: bare number, no unit

Reference set, count: 2
CCCc1c(OCC(O)COc2ccc3c(=O)cc(C(=O)O)oc3c2CCC)ccc(C(C)=O)c1O (stereo not given) ... -2.27
C=C(NC(=O)C(=C)NC(=O)c1csc(C2=N[C@@H]3c4csc(n4)[C@H]4NC(=O)c5csc(n5)[C@H]([C@](C)(O)[C@@H](C)O)NC(=O)[C@H]5CSC(=N5)/C(=C/C)NC(=O)[C@H]([C@@H](C)O)NC(=O)c5csc(n5)[C@]3(CC2)NC(=O)[C@H](C)NC(=O)C(=C)NC(=O)[C@H](C)NC(=O)[C@H]([C@@H](C)CC)N[C@@H]2C=Cc3c([C@H](C)O)cc(nc3[C@H]2O)C(=O)O[C@@H]4C)n1)C(N)=O ... -11

Given the entry Oc1ccc(-c2nc(-c3ccc(F)cc3)c(-c3ccncc3)[nH]2)cc1 , report its measured cell shape (Z-score).
-2.38

Given the entry CC(=O)O[C@@H]1C[C@H]2C(C)(C)C(=O)C=C[C@]2(C)[C@H]2CC[C@@]3(C)[C@H](c4ccoc4)OC(=O)[C@H]4O[C@]43[C@@]21C , report its measured cell shape (Z-score).
-8.96

Given the entry C[C@@]12C[C@]3(O)O[C@H](O1)C1(COC(=O)c4ccccc4)[C@H]3C[C@@]12O[C@@H]1O[C@H](COC(=O)c2ccccc2)[C@@H](O)[C@H](O)[C@H]1O , report its measured cell shape (Z-score).
-2.92

----------
Recorded cell shape (Z-score) values for a group of molecules are listed next.
- Test system: human monocyte-derived macrophages (polarized)
- assay procedure: cell shape (eccentricity) Z-score vs DMSO control; higher = more elongated, M2-like morphology
- condition notes: 5 µM; 24 h; macrophage state: M2-polarized (IL-4 + IL-13), cytokines present during treatment
# output: bare number, no unit

Reference set, count: 5
CCOc1nc2cccc(C(=O)OC(C)OC(=O)OC3CCCCC3)c2n1Cc1ccc(-c2ccccc2-c2nn[nH]n2)cc1 (configuration not stated) ... -2.81
Cc1cc2nc3c(=O)[nH]c(=O)nc-3n(C)c2cc1C=O ... 6.26
CC[C@@]1(O)C(=O)OCc2c1cc1n(c2=O)Cc2cc3c([N+](=O)[O-])cccc3nc2-1 ... -14.4
COc1cc(C=O)cc2c1[nH]c1ccccc12 ... -3.04
OCc1ccc(-c2ccc(-c3ccc(CO)s3)o2)s1 ... -20.9

What is its cell shape (Z-score) for human monocyte-derived macrophages (polarized)? Entry: CC(CCCCC(=O)Nc1ccc(C(F)(F)F)cc1)NCCc1cnc[nH]1 (configuration not stated)
-6.34

What is its cell shape (Z-score) for human monocyte-derived macrophages (polarized)? Entry: C=C1C(=O)OC2CC3(C)CCC=C(CO)C3CC12 (configuration not stated)
-5.59

What is its cell shape (Z-score) for human monocyte-derived macrophages (polarized)? Entry: CC1=CC[C@@]2(C)CC[C@@](O)(C(C)C)[C@@H]2[C@@H](O)C1
-2.34

What is its cell shape (Z-score) for human monocyte-derived macrophages (polarized)? Entry: CC(=O)N[C@@H](C(=O)O[C@H]1CCC(C)(C)[C@@H]2CCC3=C(COC3=O)[C@@]12C)C(C)C
-0.761

What is its cell shape (Z-score) for human monocyte-derived macrophages (polarized)? Entry: CCN(CCCCOC(=O)c1ccc(OC)c(OC)c1)C(C)Cc1ccc(OC)cc1 (configuration not stated)
-4.84

What is its cell shape (Z-score) for human monocyte-derived macrophages (polarized)? Entry: CCCCc1ccc2[nH]c(NC(=O)OC)nc2c1
0.889

What is its cell shape (Z-score) for human monocyte-derived macrophages (polarized)? Entry: C[C@H]1CN([C@@H](C)CO)S(=O)(=O)c2ccc(C#Cc3ccncc3)cc2O[C@@H]1CN(C)C(=O)Nc1ccc2c(c1)OCO2
5.87

What is its cell shape (Z-score) for human monocyte-derived macrophages (polarized)? Entry: O=C1c2ccccc2-c2nc3nonc3nc21
-2.4

What is its cell shape (Z-score) for human monocyte-derived macrophages (polarized)? Entry: CN1c2ccccc2C(=O)N2CCc3c([nH]c4ccccc34)[C@@H]21
-7.76

What is its cell shape (Z-score) for human monocyte-derived macrophages (polarized)? Entry: COCCCOc1ccnc(C[S+]([O-])c2nc3ccccc3[nH]2)c1C (configuration not stated)
1.52

What is its cell shape (Z-score) for human monocyte-derived macrophages (polarized)? Entry: O=C(Nc1ccc([N+](=O)[O-])cc1Cl)c1cc(Cl)ccc1O
-8.05

What is its cell shape (Z-score) for human monocyte-derived macrophages (polarized)? Entry: CCCC[C@@H](O)c1cc(OC)cc(=O)o1
-3.33

What is its cell shape (Z-score) for human monocyte-derived macrophages (polarized)? Entry: O=C1c2c(O)ccc(O)c2C(=O)c2c(NCCNCCO)ccc(NCCNCCO)c21
-1.14

What is its cell shape (Z-score) for human monocyte-derived macrophages (polarized)? Entry: CC(C)c1ccc(Cn2ccc3c4c(N)nc(NC5CC5)nc4ccc32)cc1
-11

What is its cell shape (Z-score) for human monocyte-derived macrophages (polarized)? Entry: O=C1c2ccccc2C(Cc2ccnc(F)c2)(Cc2ccnc(F)c2)c2ccccc21
1.79

What is its cell shape (Z-score) for human monocyte-derived macrophages (polarized)? Entry: COc1cc2c(cc1-c1coc3c4c(ccc3c1=O)OC(C)(C)C=C4)OCO2
-5.25

What is its cell shape (Z-score) for human monocyte-derived macrophages (polarized)? Entry: COC(=O)C[C@@H]1C(C(=O)O)=CO[C@@H](O[C@@H]2O[C@H](CO)[C@@H](O)[C@H](O)[C@H]2O)/C1=C\COC(=O)/C=C/c1ccccc1
-7.78

----------
Recorded cell shape (Z-score) values for a group of compounds are listed next.
- Tested on: human monocyte-derived macrophages (polarized)
- assay procedure: cell shape (eccentricity) Z-score vs DMSO control; higher = more elongated, M2-like morphology
- condition notes: 5 µM; 24 h; macrophage state: M1-polarized (IFNg + TNFa), cytokines present during treatment
# output: bare number, no unit

Reference set, count: 3
CC(C)(C)OC(=O)Nc1ccc(-c2cc(C(=O)NCCCCCCC(=O)NO)no2)cc1 ... -0.14
COc1cc2c(cc1-c1c(C)noc1C)ncc1[nH]c(=O)n([C@H](C)c3ccccn3)c12 ... -12.4
COc1ccc2oc(-c3ccccc3OC)cc(=O)c2c1 ... 0.285

Given the entry CO[C@H]1C[C@H](O[C@@H]2/C(C)=C/C[C@@H]3C[C@@H](C[C@]4(CC[C@H](C)[C@@H](C5CCCCC5)O4)O3)OC(=O)[C@@H]3C=C(C)/C(=N/O)[C@H]4OC/C(=C\C=C\[C@@H]2C)[C@]43O)O[C@@H](C)[C@@H]1O , report its measured cell shape (Z-score).
17.6

Given the entry CC(=Cc1ccc(C(=O)O)cc1)c1ccc2c(c1)C(C)(C)CCC2(C)C , report its measured cell shape (Z-score).
-2.82

Given the entry CCCCCCCCCc1ccc(OCCOCCOCCOCCOCCOCCOCCOCCOCCO)cc1 , report its measured cell shape (Z-score).
5.89

Given the entry NC(=O)Nc1cc(-c2cccc(F)c2)sc1C(=O)N[C@H]1CCCNC1 , report its measured cell shape (Z-score).
7.81

Given the entry CN(C)C(=O)n1nnnc1Cc1ccc(-c2ccccc2)cc1 , report its measured cell shape (Z-score).
10.3

Given the entry Nc1nc(N)c2nc(-c3cccc(O)c3)c(-c3cccc(O)c3)nc2n1 , report its measured cell shape (Z-score).
2.64

----------
- System: human monocyte-derived macrophages (polarized)
- assay procedure: cell shape (eccentricity) Z-score vs DMSO control; higher = more elongated, M2-like morphology
- condition notes: 5 µM; 24 h; macrophage state: M1-polarized (IFNg + TNFa), cytokines present during treatment
Please map values of cell shape (Z-score) to classes as shown: lower level: < -1; middle level: ≥ -1 and < 8; upper level: ≥ 8

COCc1c(C(C)C)nc(C(C)C)c(/C=C/[C@@H](O)C[C@@H](O)CC(=O)O)c1-c1ccc(F)cc1 ... upper level
COc1ccc(-c2oc3ccccc3c(=O)c2O)cc1OC ... middle level
C(=N\NC1=NCCN1)/c1c2ccccc2c(/C=N/NC2=NCCN2)c2ccccc12 ... upper level
CC[C@H]1OC(=O)[C@H](C)[C@@H](O[C@H]2C[C@@](C)(OC)[C@@H](O)[C@H](C)O2)[C@H](C)[C@@H](O[C@@H]2O[C@H](C)C[C@H](N(C)C)[C@H]2O)[C@](C)(O)C[C@@H](C)C(=O)[C@H](C)[C@@H](O)[C@]1(C)O ... lower level
Cc1onc(-c2ccccc2Cl)c1C(=O)N[C@@H]1C(=O)N2[C@@H]1SC(C)(C)[C@@H]2C(=O)O ... lower level

Moving on to the next compound.
Consider C[C@@]1(C(=O)Nc2ccc(F)nc2)CCCN1c1nc(Nc2cc(C3CC3)n[nH]2)c2cccn2n1 . To which cell shape (Z-score) class does it belong?
middle level
